Kindly supply the reported Trimeric HA Binding: RLU values for the records listed here.
- Assay System: recombinant homotrimeric HA A/common magpie/Hong Kong/5052/07 H5N1 (Influenza A virus A/common magpie/Hong Kong/5052/2007(H5N1))
- Method Description: protein microarray, purified IgG, trimeric HA
- Condition Label: remark: other sources report otherwise
One number for each entry, in RLU.

Below is a list of binders. For each, state its recorded Trimeric HA Binding: RLU.
1. TCN-527 (5086_C06) (antibody, V domains shown) VH: QVQLQESGPGLVKPSETLSLNCAVSGGSISNYYWSWIRQPPGKGLEWIGYISYNGRPKYNPSLTSRVTISVDTSKDQFSLELRSVTAADTALYYCARETRFGELLSPYDAFEIWGQGTMVTVSS VL: DIQMTQSPSSLSASVGDRVTMTCRASQNIRSYLNWYQQRPGTAPKLLIYAASTLHSGVPSRFSGGGSGTDFTLTINNLQPEDFASYYCQQSYDNPQTFGQGTKVEIK
2. TCN-557 (5081_A04) (antibody, V domains shown) VH: QVQLVQSGAEVKKPGASVKVSCKASGHTFTGYYIHWVRQAPGQGLEWMGWINPDSGATSSAQNFQGRVTMTGDTSSSTAYMELSRLSFDDTAVYYCARVLFTSPFDFWGEGTLVTVSS VL: QAVVTQEPSLAVSPGGTVTLTCGSSTGAVTRGHYPYWFQQKPGQAPRALIYDSAGNRHSWTPARFSGSLLGGKAALTLSGAQPEDEAEYYCLLSYSGVWVFGGGTKLTVL

stdout:
1: 24600; 2: 23700
